List of log10 of Ki tested on Mu-type opioid receptor (Homo sapiens, UniProt P35372).
Sequence (P35372 whole entry): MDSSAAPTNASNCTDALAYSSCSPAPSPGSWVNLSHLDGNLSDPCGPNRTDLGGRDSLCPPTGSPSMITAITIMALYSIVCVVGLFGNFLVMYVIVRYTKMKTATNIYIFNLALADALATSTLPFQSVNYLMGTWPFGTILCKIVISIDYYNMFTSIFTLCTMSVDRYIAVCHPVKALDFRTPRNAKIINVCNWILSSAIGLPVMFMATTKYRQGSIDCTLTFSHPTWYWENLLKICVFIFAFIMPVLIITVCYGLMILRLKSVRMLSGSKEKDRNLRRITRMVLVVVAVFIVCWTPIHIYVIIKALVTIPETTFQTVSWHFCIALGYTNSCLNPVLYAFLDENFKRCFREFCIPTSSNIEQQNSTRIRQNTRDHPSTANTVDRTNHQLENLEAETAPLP
Units before log transform: nM; reported quantity: Ki; transform: log10.

Please go through the list and note log10 of Ki for each molecule.
1. COc1ccc2c(c1O)[C@]13CCN(C)C(C2)[C@@]12C/C(=C\c1ccccc1)[C@@H]3c1[nH]c3ccccc3c1C2
2. COc1ccc2c(c1O)[C@]13CCN(C)C(C2)[C@@]12CC(=C(C)C)[C@@H]3c1[nH]c3ccccc3c1C2
3. CN1CC[C@]23c4c5ccc(O)c4O[C@@]2(C)c2[nH]c4ccccc4c2C[C@@]3(C/C=C/c2ccccc2)C1C5
4. C/C=C1\C[C@@]23Cc4c([nH]c5ccccc45)[C@@H]1[C@@]21CCN(C)C3Cc2ccc(OC)c(O)c21
5. COc1ccc2c(c1O)[C@]13CCN(C)C(C2)[C@]12CCC(=O)[C@H]3/C(=C/c1ccccc1)C2

1: 0.80; 2: 2.52; 3: 1.64; 4: 2.09; 5: -0.37

The values you see were collected from ChEMBL document CHEMBL1145844.
